- Tested on: CCRF-CEM leukemia
- Run Description: NCI-60 one-dose screen, 48 h
- Condition Parameters: 10 µM unless noted
This is part of a sample that, as a whole, favours compounds with a hit. Of some 83,000 tested, about 20% had one in any assay. The source made the active and inactive calls. Rule for the calls: active = growth percent below 10; inactive = the rest.
Outcomes: True = active, False = inactive

1) COc1cc(/C=C/C(=O)c2nnn(-c3ccc(Cl)cc3)c2C)cc(OC)c1OC ... True
2) S=c1c2ccccc2nc2n1CCc1c-2[nH]c2ccccc12 ... False
3) CCOC(=O)C1=C(N)N(c2ccccc2)C2=C(C(=O)CC(C)(C)C2)C1c1ccc([N+](=O)[O-])cc1 (stereo unspecified) ... False
4) COC1=C[C@]23CCC(=O)N2CCc2cc4c(cc2[C@@H]3[C@@H]1OC(=O)[C@H](C)O)OCO4 ... True
5) CCCCCCCS(=O)(=O)N1CCCC(C(=O)Nc2nc3ccc(NC(=O)c4ccc(F)c(OC)c4F)cc3s2)C1 (stereo unspecified) ... False
6) COc1ccc(C(=O)/C=C/c2cccc(Cl)c2)cc1S(N)(=O)=O ... True
7) O=C(COc1ccc(NC(=O)Nc2ccccc2)cc1)N=Nc1c(O)[nH]c2ccc([N+](=O)[O-])cc12 ... False
8) COc1ccc(-c2nc3cc(C)ccc3n2CC(=O)N=Nc2c(O)[nH]c3ccc(Br)cc23)cc1 ... False
9) O=c1oc2ccccc2cc1-c1csc(N2N=C(c3ccccc3)CC2c2ccc(N3CCOCC3)cc2)n1 (stereo unspecified) ... False
10) Cc1ccccc1[C@H]1C(C(=O)c2ccc(Cl)cc2)C2(N[C@@H]1c1ccccc1)C(=O)Nc1ccccc12 (stereo partly specified) ... True
11) COc1cc(-c2ccc(/C=N/NC(=O)c3[nH]c4ccc(Br)cc4c3-c3ccccc3)o2)cc(OC)c1OC ... False

Every entry's value here was drawn from PubChem BioAssay (NCI).
